READOUT_TYPE: melting point

These solved cases illustrate the format of a correct answer.
CCCCCC(CC(=O)O)c1ccc(OC)cc1OC (single isomer, unassigned; (+)) :: 51 to 52 °C
O=c1[nH]c2sc(-c3ccccc3)nc2c2ccccc12 :: > 310 °C
CS(=O)c1ccc2[nH]c3cc(C(=O)Nc4nnn[nH]4)nn3c(=O)c2c1 (stereo not given) :: > 350 °C
Cc1ccc(OC2CCC3C4CC=C5CC(O[Si](C)(C)C(C)(C)C)CCC5(C)C4CCC23C)cc1 (stereo not given) :: 137 to 138 °C

Exam item: Name the recorded melting point for CCN1c2ncc(CS(=O)(=O)c3ccccc3)cc2C(=O)N(C)c2ccc(Cl)nc21 .
Marked response: 96 to 98 °C

Exam item: Also COC(=O)Cc1cc(NC(=O)OC(C)(C)C)c(NC(=O)CC(=O)c2cccc(C#N)c2)cc1C#Cc1ccccc1 , if possible.
Marked response: 138 °C

* * *

READOUT_TYPE: melting point

CC(c1ccccc1)N1CCC(CO)C1 (stereo not given) :: 86 to 88 °C
O=C(O)C1CCc2c(c3ccccc3n2Cc2ccccc2)C1 (stereo not given) :: 195 to 196 °C
O=C1NC(Cc2ccc(OCc3ccccc3)cn2)C(=O)NC1Cc1ccccc1 (stereo not given) :: 215 to 218 °C
CN(C)CCOc1ccc(CNC(=O)c2ccc(S(N)(=O)=O)cc2)cc1 :: 174 °C

We now examine a further molecule.
Exam item: Param item = CNC(=O)C(NC(=O)c1cn(C)nc1C(F)(F)F)C(/C=C/c1ccccc1)c1ccccc1 (stereo not given) ; retrieve measured melting point.
Marked response: 192 to 194 °C

* * *

Entries annotated with measured melting point

# annotated cases, reported melting point shown
CCC1(CCCCCl)C(=O)Nc2ccc(C)cc21 (stereo unspecified) :: 79 to 80 °C
CC(C)C[C@H](NC(=O)OCc1ccccc1Cl)C(=O)N[C@@H](Cc1ccccc1)C(=O)CSCc1ccco1 :: 80 to 85 °C
CC(C)C(c1ccc(N)cc1)n1cncn1 (stereo unspecified) :: 118 °C

Exam item: // lookup melting point for CC(=O)COc1c(-c2ccc(S(C)(=O)=O)cc2)cnn(-c2ccc(F)c(F)c2)c1=O
Marked response: 169 to 170 °C

Exam item: Next up: CCNC(=Nc1ccccc1N1CCOCC1)NC
Marked response: 118 to 119 °C

Exam item: Can you check CC(=O)c1cc(Cl)c2c(c1Cl)C(C)(C)CCS2(=O)=O next?
Marked response: 154 to 155 °C

Exam item: Also COc1ccc(CN2CCc3cc(O)c(OC)cc3C2)cc1 , if possible.
Marked response: 162 to 163 °C

Exam item: Now the compound COC(=O)C(C)(C)Nc1cc(Cl)ccc1[N+](=O)[O-]
Marked response: 87 to 89 °C

Exam item: Now this one: CN(CCOc1ccc(C(N)=O)cc1)CCc1ccc(N)cc1
Marked response: 110 to 112 °C

Exam item: And COc1cc(F)ccc1-c1ccc(O)c(C(=O)O)c1 ?
Marked response: 205 to 207 °C

Exam item: And C=C(c1ccc(C#N)cc1)c1cncs1 ?
Marked response: 71 to 73 °C

* * *

melting point by entry:

Here are 8 compounds together with their reported answers.
CCOC(=O)C(C#N)=Cc1ccc(OC)c(OC2CCCC2)c1 :: 109 to 110 °C
CCOP(=O)(OCC)Oc1cc(C(F)(F)F)nc(N(C)C)n1 :: 22 to 24 °C
CC(=O)N=C(CCSCc1csc(NC(=N)N)n1)NC(C)=O :: 180 to 181 °C
CC(O)(c1nc2ccccc2[nH]1)C(F)(F)F (stereo unspecified) :: 184 to 187 °C
CCOc1nn(Cc2ccc(Cl)cc2Cl)cc1CCCO :: 58 to 59 °C
CC(C)Nc1cc(=O)n(-c2ccccc2)nc1-c1nc[nH]n1 :: 203 to 205 °C
COc1ccc(F)cc1N1CCN(CCCN2Cc3cc(Cl)c(S(N)(=O)=O)cc3C2=O)CC1 :: 158 to 163 °C
Nc1ccc(-c2cc(=O)cc(N3CCOCC3)o2)cc1 :: 258 to 260 °C

Exam item: # melting point lookup, item COc1cccc2c(=O)cc(C=Cc3ccc(C#N)cc3)oc12
Marked response: 274 to 275 °C

* * *

Reported melting point by item:

Exam item: // returns reported melting point for input CSc1cn(CC(C)N(O)C(N)=O)c2ccccc12 (configuration not stated)
Marked response: 87 to 90 °C

* * *

Below, each entry is listed with its recorded melting point.

CCOC(=O)c1c(CCl)nc2sc3c(c2c1-c1ccc(OC)c(OC)c1)CCCN3C(=O)OCc1ccccc1 :: 178 to 179 °C
CCOCCn1c(N2CCN(CC)CC2)nc2ccccc21 :: 134 to 136 °C
C[C@@H]1C[C@@H]2c3cccc4c3N(CCNC4)[C@@H]2C1 :: 155 to 158 °C
CC(=O)C1CCC2C3CCC4=CC(=O)C=CC4(C)C3CCC12CO[N+](=O)[O-] (stereo not given) :: 148 to 150 °C

# next compound below
Exam item: What measured melting point goes with COc1ccc(-c2cc3cc(OC)cc(C(O)C(F)(F)F)c3o2)cc1 (stereo not given) ?
Marked response: 120 to 122 °C

* * *

READOUT_TYPE: melting point

Exam item: What does the record list as melting point for CCNC(=O)Oc1cccc(NC(=O)C=C(C)OC)c1 ?
Marked response: 183 °C

Exam item: Thanks! And COc1cc(-n2c(OC)nc(C(F)(F)F)cc2=O)c(F)cc1Br ?
Marked response: 175 to 177 °C

Exam item: Next record, please: CCN(CC)C(=S)NC1C=C2c3cccc4c3c(cn4CC)CC2N(C)C1 (stereo not given)
Marked response: 108 °C

Exam item: Try COc1ccccc1Oc1c(Cl)nc(SC)nc1NS(=O)(=O)c1ccc(C(C)(C)C)cc1 next.
Marked response: 123 to 124 °C

Exam item: Continue with CCCCCCCCc1ccc(S(=O)(=O)Nc2nncs2)cc1
Marked response: 123 to 124 °C

Exam item: Next entry: [N-]=[N+]=NS(=O)(=O)c1cc(C(=O)O)c(O)c(S(=O)(=O)N=[N+]=[N-])c1
Marked response: 184 to 186 °C

* * *

READOUT_TYPE: melting point

Solved cases (3 shown):
CCOc1cc(Cn2[nH]c(N)cc2=O)ccc1Cl :: 143 °C
CCCCCCCCCCCCP(=O)(O)CCCN :: 175 to 177 °C
CC(C)OC(=O)c1ccc(=O)n(CCNC(=O)c2cccnc2)c1 :: 160 to 161 °C

Exam item: I'd like to know its melting point. The compound in question is CCC1(CCCCCBr)C(=O)Nc2ccccc21 (stereo not given)
Marked response: 77 to 78 °C

Exam item: Consider next the compound N#CC1=C(c2ccccc2)Nc2ccccc2S1=O (stereo not given) in the same way.
Marked response: 182 to 184 °C

Exam item: Entry to check: O=C(Nc1cc2ncc(CN3CCCC3)cc2cc1F)c1ccc(-c2ccc(F)cc2)cc1
Marked response: 198 to 200 °C

Exam item: Also NS(=O)(=O)c1ccc(-n2nc(C(F)F)cc2-c2nc3cccc(F)c3s2)cc1 ?
Marked response: 246 to 248 °C

Exam item: Follow-up item: O=[N+]([O-])c1ccc(Cl)cc1NC1CCN(Cc2ccccc2)CC1
Marked response: 84 °C

Exam item: Would you mind doing COc1ccc2c(c1)c1c(n2Cc2ccc(Cl)cc2)CCCC1C(=O)O (stereo not given) as well?
Marked response: 218 to 220 °C

Exam item: Lookup Cc1c(C)c2c(c(C)c1OCc1ccccc1)CCC(C)(CC(=O)O)O2 (stereo not given)
Marked response: 91 to 96 °C

* * *

READOUT_TYPE: melting point

Below are worked cases with known answers.
BrCc1cccc2c(-c3ccc(Br)cc3)onc12 :: 159 to 161 °C
O=C(NC(=S)NC1Cc2ccccc2C1)c1ccccc1 :: 130 to 135 °C
O=C(Nc1ccc(N2CCOCC2=O)cc1)[C@H]1C=CCN1C(=O)Nc1ccc(Cl)cc1 :: 245 °C

Exam item: What melting point value was documented for this molecule, CC(C)CCCC(=S)SCC(C)C ?
Marked response: 43 to 44 °C

Exam item: What would you report for CCOP(=O)(OCC)C(CC(C(=O)Nc1ccccc1)C(=O)c1ccccc1)P(=O)(OCC)OCC (stereo not given) ?
Marked response: 104 to 105 °C

Exam item: Queued: CCCCN(NC(=O)c1ccccc1)C(=O)c1ccc(Cl)c(Cl)c1
Marked response: 234 to 236 °C

Exam item: Quick one: C=C(C)C(=O)Oc1ccccc1NS(C)(=O)=O
Marked response: 88 to 90 °C

Exam item: How about this molecule: CCCC[C@H](NC(=O)[C@H](CC(C)C)NC(=O)OCc1ccccc1)C(=O)CCCc1cccs1
Marked response: 65 to 67 °C
